System: MAP3K11
Set-up: species or system human, MV4-11 + K-562 + COLO205 + SK-N-BE2 + OVCAR-8
Settings: read-out: apparent Kd; compound concentrations:100 nM and 1000 nM (sheet 'Samples'); n = 1
Recorded Endpoint: potency estimated from few doses (nM)
# number only, unit nM dropped from output

Query: Please supply the value of reported potency estimated from few doses for the item Cc1cccc(Nc2nc(N[C@H]3CCCC[C@H]3N)ncc2C(N)=O)c1.Cl [GSK986310C]
Response: 1800

Query: Input O=C(O)C(F)(F)F.O=c1[nH]ccc2nc(N[C@@H]3CCNC3)nc(Nc3cc(Cl)cc(Cl)c3)c12 [GSK2188764A] , output reported potency estimated from few doses.
Response: 813

Query: Given the compound CS(=O)(=O)CCn1c(=O)c(Oc2ccc(F)cc2F)cc2cnc(NC3CCOCC3)nc21 , write its reported potency estimated from few doses.
Response: 1930

Query: Return potency estimated from few doses (reported value) for this compound: Nc1c(C(=O)c2ccccc2)cnn1-c1ccc(F)cc1
Response: 1920

Query: Respond only with potency estimated from few doses recorded for Cc1cccc(Nc2nc(N[C@H]3CCNC3)ncc2C(N)=O)c1.Cl [GSK2197149A]
Response: 1330

Cited source for all entries: paper PMC11062922
